Measured SCD5 % Max Inhibition, listed per entry.
measurement_target: SCD5 (Homo sapiens, UniProt Q86SK9)
Construct: host or cells: S. cerevisiae ole1Δ strain (W303 pdr1Δ pdr3Δ background), plasmid pRS316 with TDH3 promoter and CYC1 terminator
Sequence (Q86SK9 1-330): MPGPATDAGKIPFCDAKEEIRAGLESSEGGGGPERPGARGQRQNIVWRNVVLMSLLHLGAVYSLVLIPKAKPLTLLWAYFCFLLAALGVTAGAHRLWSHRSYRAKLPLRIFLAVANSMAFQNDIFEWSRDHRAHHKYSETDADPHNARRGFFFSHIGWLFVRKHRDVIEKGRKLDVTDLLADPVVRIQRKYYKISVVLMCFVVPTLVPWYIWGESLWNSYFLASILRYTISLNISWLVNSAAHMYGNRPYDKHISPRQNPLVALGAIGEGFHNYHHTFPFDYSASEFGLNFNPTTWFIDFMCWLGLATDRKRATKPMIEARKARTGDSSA
test_summary: Growth inhibition of humanized yeast strain expressing SCD5 as sole desaturase
Assay type: cell-based
condition_info: humanized yeast strain expressing SCD5

{"columns": ["compound", "SCD5 % Max Inhibition (%)"],
 "data": [
  ["CC(C)c1ccc(C(=O)N2CCC(c3nc(Cl)no3)CC2)cc1 [Compound 352]", 44.5],
  ["Cc1ccc(-c2noc(C3CCN(C(=O)[C@H]4CC(=O)N(c5ccc(C)c(C)c5)C4)CC3)n2)cc1 (single isomer, unassigned) [Compound 61]", 13.18],
  ["Cc1ncc2ccc(-c3noc(C4CCN(C(=O)C5CC(=O)N(c6ccccc6)C5)CC4)n3)cn12 (stereo not shown) [Compound 216]", 75.59],
  ["Cc1nn(C)c2cc(-c3noc(C4CCN(C(=O)CN5Cc6ccccc6C5=O)CC4)n3)ccc12 [Compound 165]", 80.23]
]}
